Just for reference, paper PMC3960879 is where these values come from.

# TARGET_OR_TEST_SYSTEM: F17aG receptor-binding domain (Escherichia coli, UniProt Q99003)
# Construct: variants of the lectin domains with oligolysine (4Lys) tails have been constructed; made in house; host or cells: E. coli (periplasm)
# Sequence (Q99003 23-199): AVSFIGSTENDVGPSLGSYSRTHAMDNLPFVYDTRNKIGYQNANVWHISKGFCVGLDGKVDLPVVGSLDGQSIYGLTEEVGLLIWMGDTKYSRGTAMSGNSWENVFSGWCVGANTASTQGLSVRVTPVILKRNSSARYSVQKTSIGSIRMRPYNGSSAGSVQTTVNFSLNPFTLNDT
# TEST_NAME: biochemical
# CONDITION_PARAMETERS: SPR measurements; text says F17G without variant; read-out: Kd of F17G as stated in the discussion
pKd: −log10 of the molar value.
OBSERVED_PROPERTY: pKd

{"COMPOUND": "CO[C@@H]1O[C@H](CO)[C@H](O)[C@H](O[C@@H]2O[C@H](CO)[C@@H](O)[C@H](O)[C@H]2NC(C)=O)[C@H]1O [GlcNAcβ1,3Gal, GlcNAc(β1-3)Galβ1OMe]", "TARGET_OR_TEST_SYSTEM": "F17aG receptor-binding domain (Escherichia coli, UniProt Q99003)", "OBSERVED_PROPERTY": "pKd", "EXPERIMENTAL_RESULT": 3.18}
